# key: entry, value: self-cleavage
B1: LINE1-full (parent)
chain: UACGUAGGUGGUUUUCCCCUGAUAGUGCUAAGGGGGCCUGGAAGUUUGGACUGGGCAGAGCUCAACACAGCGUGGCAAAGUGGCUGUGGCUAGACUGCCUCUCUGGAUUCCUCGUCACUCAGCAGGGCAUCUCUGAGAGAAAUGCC

- Variants of: B1
- TEST: self-cleavage, relative activity (ratio to wild type); higher = more cleavage; in vitro, sequencing; the parent is a self-cleaving ribozyme
OBSERVED PROPERTY: self-cleavage

{"columns": ["VARIANT CODE", "RESULT VALUE"],
 "data": [
  ["C3U U9C", 1.53],
  ["G40U U85C", 0.13],
  ["U20C A69U", 0.07],
  ["U12A A136G", 2.03],
  ["U13A A30G", 0.97],
  ["A2C U5C", 1.12],
  ["A59G A69G", 0.1],
  ["U14C A77U", 1.19],
  ["A121U G137A", 2.09],
  ["U45C G70U", 0.06],
  ["A57G A117U", 0.79],
  ["G44A U143C", 1.48],
  ["G114A U132C", 1.45],
  ["U62C A77G", 0.08],
  ["U9C C18U", 1],
  ["U87A C131U", 0.08],
  ["C98U U130C", 0.5],
  ["A50G U143A", 1.7],
  ["U9C U130G", 0.74],
  ["G7U U104C", 0.9],
  ["U85C G144U", 0.19],
  ["U15C A64U", 0.66],
  ["G88A U96C", 0.02],
  ["G122U A136U", 1.31]
]}
